# Lookup of reported pIC50 keyed by entry
tgt: SARS-CoV-2 PLpro (Severe acute respiratory syndrome coronavirus 2)
Construct: containing 60 nM papain-like protease
test-description: biochemical
measurement-setup: 60 nM papain-like protease, 50 μM Z-RLRGG-AMC, pH 7.5, 37° C.; read-out: SARS-CoV-2 PLpro IC50
pIC50: −log10 of the molar value. Counter-ions that a name gives are not always drawn.

Example entries and their recorded answers appear below.
{"compound": "Cc1ccc(N2CCN(C)CC2)cc1C(=O)N[C@H](C)c1ccc(Br)cc1", "tgt": "SARS-CoV-2 PLpro (Severe acute respiratory syndrome coronavirus 2)", "pIC50": "> 5.00"}
{"compound": "Cc1ccc(N2CCN(C)CC2)cc1C(=O)N[C@H](C)c1cccc(CCC(=O)N(C)C)c1", "tgt": "SARS-CoV-2 PLpro (Severe acute respiratory syndrome coronavirus 2)", "pIC50": "> 4.70"}
{"compound": "C[C@@H](NC(=O)c1ccnc(N2CC[C@@H](N)C2)n1)c1cccc2ccccc12 [Example 319, Hydrochloride Salt]", "tgt": "SARS-CoV-2 PLpro (Severe acute respiratory syndrome coronavirus 2)", "pIC50": "< 4.00"}

Entry COc1cc(-c2cnn(C)c2)cc([C@@H](C)NC(=O)c2cc(N3CC4CNCC4C3)ccc2C)c1 (stereo partly shown) has what pIC50?
> 5.70

###

# Lookup of reported pIC50 keyed by entry
tgt: SARS-CoV-2 PLpro (Severe acute respiratory syndrome coronavirus 2)
Construct: containing 60 nM papain-like protease
test-description: biochemical
measurement-setup: 60 nM papain-like protease, 50 μM Z-RLRGG-AMC, pH 7.5, 37° C.; read-out: SARS-CoV-2 PLpro IC50
pIC50: −log10 of the molar value. Counter-ions that a name gives are not always drawn.

Example entries and their recorded answers appear below.
{"compound": "C[C@@H](NC(=O)c1cccc(C2CCN(CCS(C)(=O)=O)CC2)c1)c1cccc2ccccc12", "pIC50": "> 4.00"}
{"compound": "Cc1ccc(N2CCN(C)CC2)cc1C(=O)N[C@H](C)c1ccc(OC(F)(F)F)c(Br)c1", "pIC50": "> 5.30"}
{"compound": "Cc1ccc(N2CC3(CN(CCO)C3)C2)cc1C(=O)N[C@H](C)c1cccc2ccccc12", "pIC50": "> 5.30"}
{"compound": "C[C@@H](NC(=O)c1cccc(C2CCNCC2)c1)c1cccc2ccccc12 [Example 6, Hydrochloride Salt]", "pIC50": "> 4.70"}

Entry "Cc1ccc(N2CCN(C)CC2)cc1C(=O)N[C@H](C)c1cccc(-c2cccc(C(N)=O)c2)c1" has what pIC50?
> 5.70

Entry "Cc1ccc(N2CCN(C)CC2)cc1C(=O)N[C@H](C)c1cccc(-c2cccc(CS(C)(=O)=O)c2)c1" has what pIC50?
> 5.70

Entry "Cc1ccc(N2CCNCC2)cc1C(=O)N[C@H](C)c1cccc(-c2cnn(C)c2)c1" has what pIC50?
> 5.70

###

Tested on: human Hep G2 cells (ATCC HB-8065)
test-description: Cytotoxicity in Hep G2 cells (CellTiter-Glo)
Type: cell-based
measurement-setup: Hep G2 cells, 100 μM test article, 24-hour exposure
# Lookup of reported % Cell Viability keyed by entry
Please don't drop the unit; write it after the number.

Example entries and their recorded answers appear below.
{"compound": "CCn1cc(-c2cccc([C@@H](C)NC(=O)c3cc(N4CCN(C)CC4)ccc3C)c2)cn1", "tgt": "human Hep G2 cells (ATCC HB-8065)", "% Cell Viability": "78.6%"}
{"compound": "COc1ccc([C@@H](C)NC(=O)c2cc(N3CCN(C)CC3)ccc2C)cc1-c1cnn(CCO)c1", "tgt": "human Hep G2 cells (ATCC HB-8065)", "% Cell Viability": "101.3%"}
{"compound": "C[C@@H](NC(=O)c1cc(N2CCNCC2)ccc1Cl)c1cccc2ccccc12", "tgt": "human Hep G2 cells (ATCC HB-8065)", "% Cell Viability": "0.8%"}
{"compound": "CCn1cc(-c2cc([C@@H](C)NC(=O)c3cc(N4CCN(C)CC4)ccc3C)ccc2OC)cn1", "tgt": "human Hep G2 cells (ATCC HB-8065)", "% Cell Viability": "67.2%"}
{"compound": "COc1cc(OC)cc([C@@H](C)NC(=O)c2cc(N3CCN(C)CC3)ccc2C)c1", "tgt": "human Hep G2 cells (ATCC HB-8065)", "% Cell Viability": "90.6%"}

Under human Hep G2 cells (ATCC HB-8065): % Cell Viability value of "COc1cc(-c2cnn(C3CC3)c2)cc([C@@H](C)NC(=O)c2cc(N3CCN(C)CC3)ccc2C)c1" ?
74.9%

Under human Hep G2 cells (ATCC HB-8065): % Cell Viability value of COc1cc(Br)cc([C@@H](C)NC(=O)c2cc(N3CC4CN(C)CC4C3)ccc2C)c1 (stereo partly shown) ?
0.7%

Under human Hep G2 cells (ATCC HB-8065): % Cell Viability value of "COc1ccc([C@@H](C)NC(=O)c2cc(N3CCN(C)CC3)ccc2C)c2ccccc12" ?
6.3%

These measurements were taken from patent US20240383852A1.
